System: MCF-7 tumor cells
Experiment: Cell proliferation inhibition assay (MTT), MCF-7
Type: cell-based
Conditions: MCF-7 cells, 48 hours
Protocol: Case Study I: Antitumor Cell Activity of Naphthalene Diamides • Compounds of Tables 1 and 2 were synthesized in multiple steps according to the procedure of Examples 1-3 using relevant antitumor cell activity assays. The compound synthesized above was tested for IC50 concentration (MIC) against HCT-116, MCF-7, Calu-6 and A549 tumor cells by in vitro cellular activity. […]
assay-readout: IC50 (µM)

[[record]]
smiles_text = "O=C(Nc1ccc2cc(C(=O)Nc3nccs3)ccc2c1)c1cccc(C(F)(F)F)c1"
assay_readout = "IC50"
reading = 1.6

[[record]]
smiles_text = "O=C(NCc1ccc(Cl)nc1)c1ccc2cc(NC(=O)c3cccc(C(F)(F)F)c3)ccc2c1"
assay_readout = "IC50"
reading = 3.2

[[record]]
smiles_text = "Cc1cccc(C(=O)Nc2ccc3cc(C(=O)Nc4nccs4)ccc3c2)c1"
assay_readout = "IC50"
reading = 2.9

[[record]]
smiles_text = "O=C(Nc1ccc2cc(C(=O)N3CCOCC3)ccc2c1)c1ccc(F)cc1"
assay_readout = "IC50"
reading = 3.7

[[record]]
smiles_text = "COc1ccccc1C(=O)Nc1ccc2cc(C(=O)NC(C)C)ccc2c1"
assay_readout = "IC50"
reading = 9

[[record]]
smiles_text = "COc1ccc(C(=O)Nc2ccc3cc(C(=O)NC4CC4)ccc3c2)cc1"
assay_readout = "IC50"
reading = 2.65

[[record]]
smiles_text = "O=C(Nc1ccc2cc(C(=O)Nc3nccs3)ccc2c1)c1cccc(Cl)c1"
assay_readout = "IC50"
reading = 6.7

[[record]]
smiles_text = "COc1ccc(C(=O)Nc2ccc3cc(C(=O)Nc4cccc(C(F)(F)F)c4)ccc3c2)cc1"
assay_readout = "IC50"
reading = 6.6

[[record]]
smiles_text = "Cc1cccc(C(=O)Nc2ccc3cc(C(=O)NCc4ccc(Cl)nc4)ccc3c2)c1"
assay_readout = "IC50"
reading = 3.2

[[record]]
smiles_text = "COc1ccc(OC)c(C(=O)Nc2ccc3cc(C(=O)NCc4ccc(Cl)nc4)ccc3c2)c1"
assay_readout = "IC50"
reading = 3.5

[[record]]
smiles_text = "CN1CCN(C(=O)c2ccc3cc(NC(=O)c4cccc(C(F)(F)F)c4)ccc3c2)CC1"
assay_readout = "IC50"
reading = 2.7

[[record]]
smiles_text = "O=C(NCc1ccc(Cl)nc1)c1ccc2cc(NC(=O)c3ccc(F)cc3)ccc2c1"
assay_readout = "IC50"
reading = 7.6

[[record]]
smiles_text = "COc1ccc(C(=O)Nc2ccc3cc(C(=O)Nc4nccs4)ccc3c2)cc1"
assay_readout = "IC50"
reading = 3.9

[[record]]
smiles_text = "O=C(Nc1ccc2cc(C(=O)Nc3nccs3)ccc2c1)c1ccc(Cl)c(Cl)c1"
assay_readout = "IC50"
reading = 6.2


Entry source: patent US11274078B2
